# target_entity: T1, recombinant his-tag human LAG3-ECD protein (human, UniProt P18627 23-450)
# T1 construct: extracellular domain; not shown: his tag
# T1 sequence (looked up): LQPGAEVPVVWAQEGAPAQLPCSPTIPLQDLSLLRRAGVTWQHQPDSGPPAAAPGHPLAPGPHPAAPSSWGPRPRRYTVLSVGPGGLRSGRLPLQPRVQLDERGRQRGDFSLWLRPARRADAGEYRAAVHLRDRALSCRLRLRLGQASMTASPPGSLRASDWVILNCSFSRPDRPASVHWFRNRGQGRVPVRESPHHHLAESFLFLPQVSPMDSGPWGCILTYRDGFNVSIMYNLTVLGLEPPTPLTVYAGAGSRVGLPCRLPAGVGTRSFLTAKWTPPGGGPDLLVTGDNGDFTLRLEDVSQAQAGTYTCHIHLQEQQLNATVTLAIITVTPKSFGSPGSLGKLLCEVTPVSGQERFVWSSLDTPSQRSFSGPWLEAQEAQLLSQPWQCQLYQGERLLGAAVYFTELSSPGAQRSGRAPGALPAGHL
# assay_overview: SPR Biacore T200, antibody captured by anti-human Fc, LAG3-ECD-his injected
readout_kind: kon (M⁻¹ s⁻¹)
Write the answer as a number in M⁻¹ s⁻¹, unit excluded.

Some binders with recorded kon:
1. NLAG3-HDB169-S27 (antibody, human IgG1, V domains shown, Short label tied by its unique suffix) VH: QVQLVQSGAEVKKPGSSVKVSCKASGGTFSSYAISWVRQAPGQGLEWMGGIIPIFGTANYAQKFQGRVTITADESTSTAYMELSSLRSEDTAVYYCTTAAPGSYYLVFHYWGQGTLVTVSS VL: DIQLTQSPSSLSASVGDRVTITCRASQTISSHLNWYQQKPGKAPKVLIYAASSLQSGVPSRFSGSGSGTEFTLTISSLQPDDFATYYCQQGNSFPFTFGPGTKVEIKR ... 7.04e+06
2. NLAG3-HDB169-S136 (antibody, human IgG1, V domains shown, Short label tied by its unique suffix) VH: QVQLVQSGAEVKKPGSSVKVSCKASGGTFSSYAISWVRQAPGQGLEWMGGIIPIFGTANYAQKFQGRVTITADESTSTAYMELSSLRSEDTAVYYCTRGQDSTWYSSFDYWGQGTLVTVSS VL: AIRMTQSPSSLSASVGDRVTITCRASQSISSYLNWYQQKPGKAPNLLIYAVSTLQSGVPSRFSGSGSGTVFTLTISSLQPEDFATYFCQQGNSFPLTFGGGTKVEIKR ... 798000
3. NLAG3-HDB169-S24 (antibody, human IgG1, V domains shown, Short label tied by its unique suffix) VH: QVQLVQSGAEVKKPGSSVKVSCKASGGTFSSYAISWVRQAPGQGLEWMGGIIPIFGTANYAQKFQGRVTITADESTSTAYMELSSLRSEDTAVYYCTREPHFDYWGQGTLVTVSS VL: EIVMTQSPSSLSASVGDRVTITCQASQDISNYLNWYQQKPGKAPKLLIYDASNLETGVPSRFSGSGSGTEFTLTISSLRPEDFATYFCQQADSFPITFGQGTRLEIKR ... 1.79e+06
4. NLAG3-HDB169-S31 (antibody, human IgG1, V domains shown, Short label tied by its unique suffix) VH: QVQLVQSGAEVKKPGSSVKVSCKASGGTFSSYAISWVRQAPGQGLEWMGGIIPIFGTANYAQKFQGRVTITADESTSTAYMELSSLRSEDTAVYYCARDAGPVGYYGMDVWGQGTTVTVSS VL: AIRMTQSPSTLSASVGDRVTITCRASQGIAGWLAWYQQKPGKAPKLLIYAASSLQSGVPSRFSGSASGTDFTLTISNLQPEDFATYYCQQAKSFPLTFGGGTKVEIKR ... 2.08e+06
5. NLAG3-HDB169-T99 (antibody, human IgG1, V domains shown, Short label tied by its unique suffix) VH: QVQLVQSGAEVKKPGSSVKVSCKASGGTFSSYAISWVRQAPGQGLEWMGGIIPIFGTANYAQKFQGRVTITADESTSTAYMELSSLRSEDTAVYYCVRDLQDWNYGGAAYWGQGTLVTVSS VL: VIWMTQSPSSLSASVGDSVTITCQASRDISNSLSWHQQKPGKAPKLLIYAASSLQSGVPSRFSGSGSGTDFTLTISSLQPEDFATYYCQQTKSFPLTFGGGTKVEIKR ... 7.62e+06
6. NLAG3-HDB169-S87 (antibody, human IgG1, V domains shown, Short label tied by its unique suffix) VH: QVQLVQSGAEVKKPGSSVKVSCKASGGTFSSYAISWVRQAPGQGLEWMGGIIPIFGTANYAQKFQGRVTITADESTSTAYMELSSLRSEDTAVYYCAKDIRWYYGMDVWGQGTTVTVSS VL: DIVMTQSPSSVSAFVGDRVTITCRASQGVSSWLAWFQQKPGKAPKLLIYAASTLQSGVPSRFSGRGYGTEFTLTISSLQPEDLATYYCQQVKSFPLTFGGGTKVDIKR ... 928000

The record that follows has no kon shown yet.
Q. State the recorded kon for this entry: NLAG3-HDB169-S120 (antibody, human IgG1, V domains shown, Short label tied by its unique suffix) VH: QVQLVQSGAEVKKPGSSVKVSCKASGGTFSSYAISWVRQAPGQGLEWMGGIIPIFGTANYAQKFQGRVTITADESTSTAYMELSSLRSEDTAVYYCARSGDRYDFWSGYWGQGTLVTVSS VL: EIVLTQSPSSVSASVGDRVTITCRASRGISSWLAWYQQKPGKAPKLLIYAASTLQSGVPSRFSGSGSGTDFTLTISSLQPEDFATYYCQQAKSFPLTFGGGTKVEIKR
A. 1.4e+06

// provenance: patent US20220363763A1
